I'd appreciate it if you could supply pKi values for the items below.
# Subject Of Test: single-chain tethered dimer of HIV protease (Human immunodeficiency virus 1, UniProt P04585)
# Assay Protocol: biochemical
# Type: biochemical
# Set-up: fused on or other part: A second copy of the same protease unit is joined to the first by a short peptide tether, giving one polypeptide
# Run Conditions: read-out: HPLC K1; HIV protease inhibition, HPLC method; Table 2d
pKi: −log10 of the molar value.

The reported pKi of the compound O=C1N(Cc2ccoc2)C(Cc2ccccc2)C(O)C(O)C(Cc2ccccc2)N1Cc1ccoc1 (stereo not drawn) [Example 15FN] was > 8.00

The reported pKi of the compound O=C1N(CCCCCN2CCOCC2)C(Cc2ccccc2)C(O)C(O)C(Cc2ccccc2)N1CCCCCN1CCOCC1 (stereo not drawn) [15FM] was < 6.00

The reported pKi of the compound O=C1N(CCCCCn2cccn2)C(Cc2ccccc2)C(O)C(O)C(Cc2ccccc2)N1CCCCCn1cccn1 (stereo not drawn) [15FL] was < 6.00

The reported pKi of the compound NCCCCN1C(=O)N(CCCCN)C(Cc2ccccc2)C(O)C(O)C1Cc1ccccc1 (stereo not drawn) [15FI] was < 6.00

The reported pKi of the compound C=CC(=C)CN1C(=O)N(CC(=C)C=C)C(Cc2ccccc2)C(O)C(O)C1Cc1ccccc1 (stereo not drawn) [Example 15FX] was 6.00 to 8.00

The reported pKi of the compound N#CCCCCN1C(=O)N(CCCCC#N)C(Cc2ccccc2)C(O)C(O)C1Cc1ccccc1 (stereo not drawn) [15FD] was 6.00 to 8.00

---

# Tested on: HIV-1 (RF) in MT-2 cells
# Assay Protocol: microbe, parasite or virus in culture
# Type: cell-based
# Run Conditions: Human immunodeficiency virus 1, MT2, 48 h, Table 2d; class symbols; read-out: IC90
Quantity Measured: IC90

The reported IC90 of the molecule NCC(=O)Nc1cccc(CN2C(=O)N(Cc3cccc(NC(=O)CN)c3)C(Cc3ccccc3)C(O)C(O)C2Cc2ccccc2)c1 (stereo not shown) [15R] was < 10 µg/mL

The reported IC90 of the molecule CCC(O)CN1C(=O)N(CC(O)CC)C(Cc2ccccc2)C(O)C(O)C1Cc1ccccc1 (stereo not shown) [15VN] was > 50 µg/mL

The reported IC90 of the molecule O=C1N(Cc2cccc(CCl)c2)C(Cc2ccccc2)C(O)C(O)C(Cc2ccccc2)N1Cc1cccc(CCl)c1 (stereo not shown) was < 10 µg/mL

The reported IC90 of the molecule CON=Cc1cccc(CN2C(=O)N(Cc3cccc(C=NOC)c3)C(Cc3ccccc3)C(O)C(O)C2Cc2ccccc2)c1 (stereo not shown) [10D] was > 100 µg/mL

The reported IC90 of the molecule Nc1cccc(CN2C(=O)N(Cc3cccc(O)c3)C(Cc3ccccc3)C(O)C(O)C2Cc2ccccc2)c1 (stereo not shown) [11Q] was < 10 µg/mL

The reported IC90 of the molecule NC(=O)c1cccc(CN2C(=O)N(Cc3ccc(CO)cc3)C(Cc3ccccc3)C(O)C(O)C2Cc2ccccc2)c1 (stereo not shown) [15WT] was < 10 µg/mL

The reported IC90 of the molecule O=C1N(Cc2ccc(CO)o2)C(Cc2ccccc2)C(O)C(O)C(Cc2ccccc2)N1Cc1ccc(CO)o1 (stereo not shown) [Example 13X] was > 100 µg/mL

---

# Test system: HIV-1 (RF) in MT-2 cells
# Assay Protocol: microbe, parasite or virus in culture
# Format: cell-based
# Run Conditions: Human immunodeficiency virus 1, MT2, 48 h, Table 2d; class symbols; read-out: IC90
Quantity Measured: IC90

The reported IC90 of the compound O=C1NC(Cc2ccccc2)C(O)C(O)C(Cc2ccccc2)N1Cc1cccc(O)c1 (stereo not shown) [10I] was < 10 µg/mL

The reported IC90 of the compound CNc1cccc(CN2C(=O)N(Cc3ccc4ccccc4c3)C(Cc3ccccc3)C(O)C(O)C2Cc2ccccc2)c1 (stereo not shown) [15WZ] was < 10 µg/mL

The reported IC90 of the compound COCCCCCN1C(=O)N(CCCCCOC)C(Cc2ccccc2)C(O)C(O)C1Cc1ccccc1 (stereo not shown) [Example 15VV] was 10 to 100 µg/mL

The reported IC90 of the compound O=C1N(Cc2cccc(OCCO)c2)C(Cc2ccccc2)C(O)C(O)C(Cc2ccccc2)N1Cc1cccc(OCCO)c1 (stereo not shown) [10Y] was < 10 µg/mL

The reported IC90 of the compound N#Cc1cccc(CN2C(=O)N(CCCCCO)C(Cc3ccccc3)C(O)C(O)C2Cc2ccccc2)c1 (stereo not shown) [Example 15VX] was < 10 µg/mL

The reported IC90 of the compound O=C1CCC(CN2C(=O)NC(Cc3ccccc3)C(O)C(O)C2Cc2ccccc2)CC1 (stereo not shown) [Example 15VA] was > 50 µg/mL

The reported IC90 of the compound O=C(O)c1cccc(CN2C(=O)N(Cc3ccccc3)C(Cc3ccccc3)C(O)C(O)C2Cc2ccccc2)c1 (stereo not shown) [15WP] was < 10 µg/mL

The reported IC90 of the compound O=C1NC(Cc2ccccc2)C(O)C(O)C(Cc2ccccc2)N1CC1CC1CO (stereo not shown) [Example 12N] was > 100 µg/mL

The reported IC90 of the compound CCN(CC)C(=O)c1cccc(CN2C(=O)N(Cc3cccc(CO)c3)C(Cc3ccccc3)C(O)C(O)C2Cc2ccccc2)c1 (stereo not shown) [15WJ] was < 10 µg/mL

The reported IC90 of the compound N=C(N)c1cccc(CN2C(=O)N(Cc3cccc(C(=N)N)c3)C(Cc3ccccc3)C(O)C(O)C2Cc2ccccc2)c1 (stereo not shown) [11A] was > 100 µg/mL

The reported IC90 of the compound CN(C=O)c1cccc(CN2C(=O)N(Cc3cccc(N(C)C=O)c3)C(Cc3ccccc3)C(O)C(O)C2Cc2ccccc2)c1 (stereo not shown) [15F] was < 10 µg/mL

The reported IC90 of the compound Nc1cccc(CN2C(=O)N(Cc3ccc4ccccc4c3)C(Cc3ccccc3)C(O)C(O)C2Cc2ccccc2)c1 (stereo not shown) [15WU] was < 10 µg/mL

The reported IC90 of the compound O=C1N(Cc2cccnc2Cl)C(Cc2ccccc2)C(O)C(O)C(Cc2ccccc2)N1Cc1cccnc1Cl (stereo not shown) [Example 14A] was 10 to 100 µg/mL

The reported IC90 of the compound O=C1N(Cc2ccccc2)C(Cc2ccccc2)C(O)C(O)C(Cc2ccccc2)N1Cc1cccc(O)c1 (stereo not shown) [11I] was < 10 µg/mL

The reported IC90 of the compound CCOC(=O)c1cccc(CN2C(=O)N(CCCCCO)C(Cc3ccccc3)C(O)C(O)C2Cc2ccccc2)c1 (stereo not shown) [Example 15VY] was < 10 µg/mL

The reported IC90 of the compound CCC(O)CN1C(=O)NC(Cc2ccccc2)C(O)C(O)C1Cc1ccccc1 (stereo not shown) [Example 15VL] was > 50 µg/mL

The reported IC90 of the compound O=C1N(CCCCCCO)C(Cc2ccccc2)C(O)C(O)C(Cc2ccccc2)N1CCCCCCO (stereo not shown) [Example 12D] was < 10 µg/mL

The reported IC90 of the compound CCNC(=O)c1cccc(CN2C(=O)N(Cc3cccc(CO)c3)C(Cc3ccccc3)C(O)C(O)C2Cc2ccccc2)c1 (stereo not shown) [15WK] was < 10 µg/mL

The reported IC90 of the compound CCC(CN1C(=O)N(CC(CC)=NO)C(Cc2ccccc2)C(O)C(O)C1Cc1ccccc1)=NO (stereo not shown) [Example 15VP] was 10 to 100 µg/mL

The reported IC90 of the compound NNC(=O)c1cccc(CN2C(=O)N(Cc3cccc(C(=O)NN)c3)C(Cc3ccccc3)C(O)C(O)C2Cc2ccccc2)c1 (stereo not shown) [Example 10M] was < 10 µg/mL

The reported IC90 of the compound O=C1N(CCCCCCO)C(Cc2ccccc2)C(O)C(O)C(Cc2ccccc2)N1CCCCCCCl (stereo not shown) [Example 15VE] was < 10 µg/mL

The reported IC90 of the compound O=C1N(Cc2ccc(C(O)CO)cc2)C(Cc2ccccc2)C(O)C(O)C(Cc2ccccc2)N1Cc1ccc(C(O)CO)cc1 (stereo not shown) [11L] was < 10 µg/mL
